molecular target: SIK3 (Homo sapiens, UniProt Q9Y2K2); construct: purchased SignalChem S12-11G-100; assay: ADP-Glo kinase assay, SIK3; assay type: biochemical
Sequence (Q9Y2K2 59-365 limits assumed): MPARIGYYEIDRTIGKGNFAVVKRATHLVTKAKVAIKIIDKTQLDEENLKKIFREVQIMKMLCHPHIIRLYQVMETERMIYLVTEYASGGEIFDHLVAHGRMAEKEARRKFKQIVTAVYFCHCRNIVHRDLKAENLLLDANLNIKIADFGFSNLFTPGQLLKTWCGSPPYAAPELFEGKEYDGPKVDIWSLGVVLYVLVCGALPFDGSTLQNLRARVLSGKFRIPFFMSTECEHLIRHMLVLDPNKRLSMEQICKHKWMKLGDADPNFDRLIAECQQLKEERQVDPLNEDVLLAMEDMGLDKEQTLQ
pIC50: −log10 of the molar value.
MEASURED PARAMETER: pIC50

Previously resolved entries follow.
compound=COc1cc(-c2cnn3cc(C4(C(N)=O)CCC4)ccc23)cc(OC(F)F)c1C(=O)N[C@@H]1C[C@@H]1F measured_parameter=pIC50 experimental_result="8.00 to 11.00"
compound=COc1cc(-c2cnn3cc(C(C)(C)OCCN4CCOCC4)ccc23)cc(OC(F)F)c1C(=O)N[C@@H]1C[C@@H]1F measured_parameter=pIC50 experimental_result="7.00 to 8.00"
compound=COc1cc(-c2cnc3cc(C(C)(C)CN)ccn23)cc(OC(F)F)c1C(=O)NC1CC1 measured_parameter=pIC50 experimental_result="7.00 to 8.00"
compound="COc1cc(-c2cnc3cc([C@@](C)(O)C4CC4)ccn23)cc(OC(F)F)c1C(=O)NC1CC1 (single isomer, unassigned)" measured_parameter=pIC50 experimental_result="7.00 to 8.00"

Now consider the entry below.
## Input Name the recorded pIC50 for COc1cc(-c2cnc3cc(C(C)(C)C#N)ccn23)cc(OC(F)F)c1C(=O)N(C)CC1CC1 .
## Output < 6.30
